Target: human TGR5 (Homo sapiens)
Construct: expressed in transfected cells; host or cells: HEK293
Sequence (Q8TDU6 whole entry): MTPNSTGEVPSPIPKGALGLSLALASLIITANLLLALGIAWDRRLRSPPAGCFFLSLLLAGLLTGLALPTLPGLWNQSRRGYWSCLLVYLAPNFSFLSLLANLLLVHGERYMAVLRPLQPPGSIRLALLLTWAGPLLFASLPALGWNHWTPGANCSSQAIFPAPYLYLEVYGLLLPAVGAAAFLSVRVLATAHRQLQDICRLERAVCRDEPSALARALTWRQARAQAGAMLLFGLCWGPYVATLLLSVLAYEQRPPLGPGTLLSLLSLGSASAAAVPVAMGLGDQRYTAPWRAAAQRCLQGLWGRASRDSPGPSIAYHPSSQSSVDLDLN
Assay: Cell-based TGR5 assay (cAMP generation, HTRF)
Details: HEK293 cells stably transfected with human TGR5; cAMP by HTRF; 30 minutes at 37° C.; read-out: pEC50 Human TGR5 (converted)
readout label: EC50

>  <molecule>
CC(OCCc1cc(Cl)c(COC2(c3cnccc3-c3ccccc3OC3CC3)CC2)cc1Cl)C(=O)NC[C@H](O)[C@@H](O)[C@H](O)[C@H](O)CO (stereo partly shown) [Compound I-152]

>  <EC50>
0.126 to 1 µM

$$$$

Data request: Please report EC50 for the following molecule: CN1CCCN(S(=O)(=O)c2ccc(Cl)c(COC3(c4cnccc4-c4ccccc4OC4CC4)CC3)c2)CC1 [Compound I-769]
Data returned: 0.126 to 1 µM

Data request: Please report EC50 for the following molecule: CN(C[C@H](O)[C@@H](O)[C@H](O)[C@H](O)CO)C(=O)NS(=O)(=O)NCCCCc1cc(Cl)c(COC2(c3cnccc3-c3ccccc3OC3CC3)CC2)cc1Cl (stereo in doubt) [Compound I-194]
Data returned: < 0.1 µM

Data request: Please report EC50 for the following molecule: CC(CCCC(=O)NC[C@H](O)[C@@H](O)[C@H](O)[C@H](O)CO)c1cc(Cl)c(COC2(c3cnccc3-c3ccccc3OC3CC3)CC2)cc1Cl (stereo partly shown) [Compound I-161]
Data returned: < 0.1 µM

Data request: Please report EC50 for the following molecule: CN(CCCCNC(=O)NC[C@H](O)[C@@H](O)[C@H](O)[C@H](O)CO)S(=O)(=O)c1ccc(C(F)(F)F)c(COC2(c3cnccc3-c3ccccc3OC3CC3)CC2)c1 [Compound I-469]
Data returned: < 0.1 µM

Data request: Please report EC50 for the following molecule: COCCN(CCCC(C)c1ccc(Cl)c(CNC2(c3cnccc3-c3ccccc3OC3CC3)CC2)c1)C(=O)[C@@H](O)[C@@H](O)[C@H](O)[C@@H](O)CO (stereo partly shown) [Compound I-282]
Data returned: < 0.1 µM

Data request: Please report EC50 for the following molecule: FC(F)(F)c1ccc(Cl)c(CNC2(c3cnccc3-c3ccccc3OC3CC3)CC2)c1 [Compound I-32]
Data returned: < 0.1 µM

Data request: Please report EC50 for the following molecule: NCCOCCNS(=O)(=O)c1ccc(Cl)c(COC2(c3cnccc3-c3ccccc3OC3CC3)CC2)c1 [Compound I-399]
Data returned: 0.126 to 1 µM

Data request: Please report EC50 for the following molecule: CN(CCSc1ccc(Cl)c(COC2(c3cnccc3-c3ccccc3OC3CC3)CC2)c1)C(=O)[C@@H](O)[C@@H](O)[C@H](O)[C@@H](O)CO [Compound I-555]
Data returned: < 0.1 µM

Data request: Please report EC50 for the following molecule: CN(C[C@H](O)[C@@H](O)[C@H](O)[C@H](O)CO)C(=O)CC1CN(S(=O)(=O)c2ccc(Cl)c(COC3(c4cnccc4-c4ccccc4OC4CC4)CC3)c2)C1 [Compound I-447]
Data returned: < 0.1 µM

Data request: Please report EC50 for the following molecule: O=C(NC[C@H](O)[C@@H](O)[C@H](O)[C@H](O)CO)NC1CN(S(=O)(=O)c2ccc(Cl)c(COC3(c4cnccc4-c4ccccc4OC4CC4)CC3)c2)C1 [Compound I-427]
Data returned: 0.126 to 1 µM

Data request: Please report EC50 for the following molecule: O=C(CCCSc1ccc(Cl)c(COC2(c3cnccc3-c3ccccc3OC3CC3)CC2)c1)N(C[C@H](O)[C@@H](O)[C@H](O)[C@H](O)CO)C1CCOCC1 [Compound I-669]
Data returned: 0.126 to 1 µM

Data request: Please report EC50 for the following molecule: CC(CCCC(=O)N(C[C@@H](O)[C@H](O)[C@@H](O)[C@@H](O)CO)CC(C)(C)CO)c1ccc(Cl)c(CNC2(c3cnccc3-c3ccccc3OC3CC3)CC2)c1 (stereo partly shown) [Compound I-341]
Data returned: < 0.1 µM

Data request: Please report EC50 for the following molecule: CC(CCCC(=O)N1CCN(CCNC(=O)NC[C@H](O)[C@@H](O)[C@H](O)[C@H](O)CO)CC1)c1ccc(Cl)c(CNC2(c3cnccc3-c3ccccc3OC3CC3)CC2)c1 (stereo partly shown) [Compound I-323]
Data returned: < 0.1 µM

Data request: Please report EC50 for the following molecule: CC(C)N(CCCCNC(=O)N[C@@H](CO)[C@@H](O)[C@H](O)[C@H](O)CO)S(=O)(=O)c1cc(COC2(c3cnccc3-c3ccccc3OC3CC3)CC2)c(Cl)cc1F [Compound I-763]
Data returned: < 0.1 µM
